# Test system: MUSK
# condition.parameters: concentration: 1 μM, replicates: in singlicate; n = 1;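 further: KINOMEscan kinase panel screen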
experimental.readout: %Inh
The reply should read as a number followed by its unit.

Consider the following illustrative entries.
compound=O=C(Nc1n[nH]c2nc(-c3cccs3)c(Br)cc12)C1CCCC1 target_desc=MUSK result=37%
compound=CSc1ccc(-c2nc3n(c2-c2ccncc2)CCC3)cc1 target_desc=MUSK result=0%
compound=COc1nccc(-c2c(-c3ccc(F)cc3)ncn2CCCN2CCOCC2)n1 target_desc=MUSK result=0%

Request: What value of measured %Inh is listed for COc1ccc(CSc2nnc(-c3ccc4nccn4c3)o2)cc1C(F)(F)F ?
Response: 9%

Request: What value of measured %Inh is listed for Nc1cccc(-c2ccc3c(N)n[nH]c3c2)n1 ?
Response: 4%

----------
# Tested on: JNK2
# Construct: gene MAPK9
# condition.parameters: concentration: 1 μM, replicates: in singlicate; n = 1
experimental.readout: %Inh (%)
Numeric only. Scale: %

Request: Give recorded %Inh with JNK2 for the following compound: COc1ccc(CSc2nnc(-c3ccc4nccn4c3)o2)cc1C(F)(F)F
Response: 0

Request: Give recorded %Inh with JNK2 for the following compound: NS(=O)(=O)c1cccc(N/C=C2\C(=O)Nc3ccc(S(=O)(=O)Cc4c(Cl)cccc4Cl)cc32)c1
Response: 21

Request: Give recorded %Inh with JNK2 for the following compound: COc1ccc(CSc2nnc(-c3ccc4c(c3)CCO4)o2)cc1
Response: 0

----------
# System: CAMK1D
# condition.parameters: concentration: 1 μM, replicates: in singlicate; n = 1
experimental.readout: %Inh (%)
Numeric only. Scale: %

molecule="CNc1nc(-c2ccc3c(N)n[nH]c3c2)cc(N2C[C@@H](C(=O)Nc3ccccc3)CC[C@H]2C)n1 [GSK2298859]" experimental_readout=%Inh measured_number=25
molecule="COc1ccc2cc(-c3nc(-c4ccccc4C(C)C)[nH]c3-c3ccncc3)ccc2c1 [SB-660566]" experimental_readout=%Inh measured_number=7
molecule="O=C(Nc1n[nH]c2nc(-c3cccs3)c(Br)cc12)C1CC1 [SB-735297]" experimental_readout=%Inh measured_number=0
molecule="CC(=O)c1cccc(NC(=O)NC2CCN(c3ccnc(Nc4ccc(F)cc4)n3)C2)c1 (centres unmarked) [GSK1379710]" experimental_readout=%Inh measured_number=16
molecule="Nc1nccc(-c2c(-c3ccc(F)cc3)ncn2C2CCN(Cc3ccccc3)CC2)n1 [SB-219980]" experimental_readout=%Inh measured_number=0

Request: Give recorded %Inh with CAMK1D for the following molecule: O=C(Nc1n[nH]c2cc(-c3ccsc3)ccc12)C1CC1 [SB-732932]
Response: 0

Request: Give recorded %Inh with CAMK1D for the following molecule: COc1ccc(CSc2nnc(-c3ccc4nccn4c3)o2)cc1C(F)(F)F
Response: 0

Request: Give recorded %Inh with CAMK1D for the following molecule: COc1ccc(-c2coc3ccc(-c4nnc(C)o4)cc23)cc1
Response: 13

Request: Give recorded %Inh with CAMK1D for the following molecule: CCn1c(-c2c(N)noc2C)nc2cnccc21 [SB-737856]
Response: 0

Request: Give recorded %Inh with CAMK1D for the following molecule: CNc1cc(-c2ccc3c(N)n[nH]c3c2)nc(N)n1 [GSK2224810]
Response: 23

Request: Give recorded %Inh with CAMK1D for the following molecule: CS(=O)(=O)CCNCc1nc(-c2ccc3ncnc(Nc4ccc5c(cnn5Cc5ccccc5)c4)c3c2)cs1.Cl.Cl [GW569716]
Response: 9

----------
# System: PIM3
# condition.parameters: concentration: 1 μM, replicates: in singlicate; n = 1
Recorded %Inh by entry
Numeric only. Scale: %

compound=COc1ccc(CSc2nnc(-c3ccc4ncsc4c3)o2)cc1C(F)(F)F measured_number=10
compound=Cc1ccc(-c2nc(Nc3ccncc3)c3ccccc3n2)s1 measured_number=12
compound=COc1ccc(-c2coc3ccc(-c4nnc(C)o4)cc23)cc1 measured_number=15

# ---- query compound ----
Request: What value of measured %Inh is listed for CC[C@@H]1CO[C@H](C(=O)Nc2ccccc2)CN1c1cc(-c2ccc3c(N)n[nH]c3c2)nc(NC)n1 ?
Response: 3

----------
# System: MST3
# Construct: gene STK24
# condition.parameters: concentration: 1 μM, replicates: in singlicate; n = 1
experimental.readout: %Inh (%)
Numeric only. Scale: %

Consider the following illustrative entries.
compound=O=C(Nc1n[nH]c2nc(-c3cccs3)c(Br)cc12)C1CCCC1 measured_number=0
compound=CNc1nc(-c2ccc3c(N)n[nH]c3c2)cc(N2C[C@@H](C(=O)NC3CCCCC3)OC[C@H]2C)n1 measured_number=18
compound=Cc1c(Cn2c(C)c(C)n3c(=O)cc(N4CCOCC4)nc23)cccc1C(F)(F)F measured_number=6
compound="COC(=O)c1cccc(NC(=O)NC2CCN(c3ccnc(Nc4ccc(OC)cc4)n3)C2)c1 (centres unmarked)" measured_number=0
compound=CNc1cc(-c2ccc3c(N)n[nH]c3c2)nc(N)n1 measured_number=24
compound=Cc1ccc(-c2nc(Nc3ccncc3)c3ccccc3n2)s1 measured_number=11
compound="Cn1cncc1C(=O)NC1CCN(c2ccnc(Nc3ccc(F)cc3)n2)C1 (centres unmarked)" measured_number=0
compound=COc1ccc(Nc2nccc(-c3ccc(NC(=O)c4cc5cc(F)ccc5[nH]4)cc3)n2)cc1 measured_number=0

Request: What value of measured %Inh is listed for Cc1ccc(NC(=O)Nc2ccccc2)cc1-c1ccc(C(=O)Nc2ccncc2)cc1 ?
Response: 0

Request: What value of measured %Inh is listed for Cn1cncc1-c1cc2c(Nc3ccc(OCc4ccccc4)cc3)ncnc2cn1 ?
Response: 0

Request: What value of measured %Inh is listed for CS(=O)(=O)CCNCc1nc(-c2ccc3ncnc(Nc4ccc5c(cnn5Cc5ccccc5)c4)c3c2)cs1.Cl.Cl ?
Response: 0

----------
# Tested on: CSNK1E
# condition.parameters: concentration: 1 μM, replicates: in singlicate; n = 1
Recorded %Inh by entry
Numeric only. Scale: %

Consider the following illustrative entries.
compound="COc1ccc(Nc2nccc(N3CCC(NC(=O)C(C)c4ccc(Cl)cc4)C3)n2)cc1 (centres unmarked)" experimental_readout=%Inh measured_number=11
compound=Cc1cnc(N)c(/C=C/c2cncc(C(=O)NCCc3ccc(Cl)cc3Cl)c2)c1.Cl experimental_readout=%Inh measured_number=20
compound=COc1ccc(Nc2nccc(-c3ccc(NC(=O)c4cc5cc(F)ccc5[nH]4)cc3)n2)cc1 experimental_readout=%Inh measured_number=21
compound=CNc1nc(-c2ccc3c(N)n[nH]c3c2)cc(N2C[C@@H](C(=O)NC3CCCCC3)OC[C@H]2C)n1 experimental_readout=%Inh measured_number=38
compound=FC(F)(F)c1ccccc1-c1cc(-c2c[nH]nc2-c2ccccn2)ccn1 experimental_readout=%Inh measured_number=23

Request: What value of measured %Inh is listed for Cc1ccccc1-c1cc(-c2c[nH]nc2-c2ccccn2)ccn1 ?
Response: 16

Request: What value of measured %Inh is listed for Cc1cccc2c(-c3ccncn3)c(-c3ccc(F)cc3)nn12 ?
Response: 100

Request: What value of measured %Inh is listed for CC(=O)c1cccc(NC(=O)NC2CCN(c3ccnc(Nc4ccc(F)cc4)n3)C2)c1 (centres unmarked) ?
Response: 18

Request: What value of measured %Inh is listed for COC(=O)c1cccc(NC(=O)NC2CCN(c3ccnc(Nc4ccc(OC)cc4)n3)C2)c1 (centres unmarked) ?
Response: 35

Request: What value of measured %Inh is listed for O=c1cc(N2CCOCC2)nc2n(Cc3ccccc3F)ccn12 ?
Response: 33

Request: What value of measured %Inh is listed for CS(=O)(=O)CCNCc1nc(-c2ccc3ncnc(Nc4ccc(OCc5ccccc5)c(Cl)c4)c3c2)cs1.Cl ?
Response: 15

----------
Recorded %Inh by entry
# Test system: MAP3K15
# condition.parameters: concentration: 1 μM, replicates: in singlicate; n = 1
Numeric only. Scale: %

Consider the following illustrative entries.
molecule=CCn1c(-c2c(N)noc2C)nc2cnccc21 experimental_readout=%Inh measured_number=0
molecule=Cc1ccccc1-c1cc(-c2c[nH]nc2-c2ccccn2)ccn1 experimental_readout=%Inh measured_number=0

Request: Give recorded %Inh with MAP3K15 for the following molecule: Cc1cnc(N)c(/C=C/c2cncc(C(=O)NCCc3ccc(Cl)cc3Cl)c2)c1.Cl
Response: 0

Request: Give recorded %Inh with MAP3K15 for the following molecule: CS(=O)(=O)Cc1ccc(Nc2nccc(-c3c(-c4cccc(NC(=O)C5CCCCC5)c4)nn4ncccc34)n2)cc1
Response: 38

Request: Give recorded %Inh with MAP3K15 for the following molecule: COc1ccc(-c2coc3ccc(-c4nnc(C)o4)cc23)cc1
Response: 0

Request: Give recorded %Inh with MAP3K15 for the following molecule: COc1ccc(CSc2nnc(-c3ccc4ncsc4c3)o2)cc1C(F)(F)F
Response: 0

Request: Give recorded %Inh with MAP3K15 for the following molecule: Cc1ccc(NC(=O)c2ccc(Cl)cc2)cc1-c1ccc(C(=O)Nc2ccncc2)cc1
Response: 0

Request: Give recorded %Inh with MAP3K15 for the following molecule: COc1ccc(Nc2nccc(N3CCC(NC(=O)c4cc5ccccc5s4)C3)n2)cc1 (centres unmarked)
Response: 0

Request: Give recorded %Inh with MAP3K15 for the following molecule: CNc1cc(-c2ccc3c(N)n[nH]c3c2)nc(N)n1
Response: 0

Request: Give recorded %Inh with MAP3K15 for the following molecule: CN1c2ccc(-c3ccc(C(N)=O)cc3)cc2-c2[nH]ncc2S1(=O)=O
Response: 0

Request: Give recorded %Inh with MAP3K15 for the following molecule: O=C1NC(=O)C(c2ccc(Cl)cc2)=C1Nc1ccc(O)cc1
Response: 7

Request: Give recorded %Inh with MAP3K15 for the following molecule: Cc1ccc(NC(=O)Nc2ccc(Cl)c(C(F)(F)F)c2)cc1-c1ccc(C(=O)Nc2ccncc2)cc1
Response: 0

Request: Give recorded %Inh with MAP3K15 for the following molecule: Cl.Cl.Cl.N#Cc1ccc(CCNc2nccc(-c3cccc(CN4CCNCC4)c3)n2)cc1
Response: 0

Request: Give recorded %Inh with MAP3K15 for the following molecule: CC(=O)c1c(C)c2cnc(Nc3ccn(C)n3)nc2n(C2CCCC2)c1=O
Response: 0

Request: Give recorded %Inh with MAP3K15 for the following molecule: O=c1cc(N2CCOCC2)nc2n(Cc3ccccc3F)ccn12
Response: 0

Request: Give recorded %Inh with MAP3K15 for the following molecule: O=C(Nc1n[nH]c2cc(-c3ccsc3)ccc12)C1CC1
Response: 45

Request: Give recorded %Inh with MAP3K15 for the following molecule: FC(F)(F)c1ccccc1-c1cc(-c2c[nH]nc2-c2ccccn2)ccn1
Response: 0
